B1: TPR t1 (parent)
chain: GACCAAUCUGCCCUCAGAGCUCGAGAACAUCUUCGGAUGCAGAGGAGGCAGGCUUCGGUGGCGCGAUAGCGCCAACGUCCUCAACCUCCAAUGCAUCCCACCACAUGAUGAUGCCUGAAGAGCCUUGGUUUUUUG

Variants of: B1
Assay info: polymerase ribozyme fitness, log enrichment relative to wild type (log ratio); higher = more active; in vitro selection for triplet polymerase activity
Measured parameter: polymerase ribozyme fitness (log ratio)
Answer with a number only.

1. GACCAAUCUGCCCUCAGAGCUCGAGAACAUCUUCGGAUGCAGAGGAGGCAGGCUUCGGUGGCGCGAUAGCGCGAACGUCCUCAACCUCCAAUGCAUCCCACCACAUGAUGAUGCCUGAACAGCCUUGUUUUUUUG: -1.34
2. GACCAAUUUGCCCUCAGAGCUAGAGAACAUCUUCGGAUGCAGAGGAGGCAGGCUUCGGUGGUGCGAUAGCGCCAACGUCCUCAACCUCCAAUGCAUCCCACCACAUGAUGAUGCCUGAAGAGCCUUGGUUUUUUG: -4.04
3. GACCAAUCUGCCCUCAGAGCUCGAGAACAUCUUCGGAUGCAGAGGAGGCAGGCUUCGGUGGCGCGAUAGAGCCAACGUCCUCAACCUCCAAUGCAUCCCACCACAAGAUGAUGCCUGAAGAGCCUUGGUUUUUUG: -1.51
4. GACCAAUCUGCCCUCAGUGCUCGAGAACAUCUUCGGAUGGAGAGGAGGCAGGCUUCGGUGGCGCGAUAGCGCCAACGUCCUCAACCUCCAAUGCAUCCCACCACAUGAUGAUGCCUGAAGAGCCUUGGUUUUUUG: -4.04
5. GACCAAUCUGCCCUCAGAGCUCGAGAACAUCCUCGGAUGCAGAGGAGGCAGGCUUCGGUGGCGCGAUAGCGCCAACGUCCUCAACCUCCAAUGCAUCCCACCACAUGAUGAUGCCUGAGGAGCCUUGGUUUUUUG: 0.645

Q: State the recorded polymerase ribozyme fitness (log ratio) for this entry: GACCAAUCUGCCCUCAGAGCUCGAGAACAUCUUCGGAUGCAGAGGAGGCAGGCUUCGGUGGCACGAUAGCGCCAACGUCCUCAACCUCGAAUGCAUCCCACCACAUGAUGAUGCCUGAAGAGCCUUGGUUUUUUG
Ans: -2.7

Q: State the recorded polymerase ribozyme fitness (log ratio) for this entry: GACCAAUCUGCCCUCAGAGCUCGAGAACAUCUUCGGAUGCAGAGGAGGCAGGCUUGGGUGGCGCGAUAGCGCCAACGUCCUCAACCUCCAAUGCAUCCCACCACAUGAUGAUGCCUGAAGAGUCUUGGUUUUUUG
Ans: 0.748

Q: State the recorded polymerase ribozyme fitness (log ratio) for this entry: GACCAAUCUGCCGUCAGAGCUCGAGAACAUCUUCGGAUGCAUAGGAGGUAGGCUUCGGUGUCGCGAUAGCGCCAACGUCCUCAACCUCCAAUGCAUCCCACCACAUGAUGAUGCCUGAAGAGCCUUGGUAUUUUG
Ans: -4.93

Q: State the recorded polymerase ribozyme fitness (log ratio) for this entry: GACCAAUCUGCCCUCAGAGCUCGAGAACAUCUUCGGAUGAAGAGGAGGCAGGCUUAGGUGGCGCGAUAGCGCUAACGUCCUCACCCUCCAAUGCAUCCCACCACAUGAUGAUGCCUGAAGAGCCUUGGUUUUUUG
Ans: -2.23

Q: State the recorded polymerase ribozyme fitness (log ratio) for this entry: GACCAAUCUGCCCUCAGAGCUCGAGAACAUCUUCGGAUGCAGAGGGGGCAGGCUUCGGUGGCGCGAUAGCGCCAACGUCCUCAACCUCCAAUGCAUCCCACCACAUGAUGAUACCUGAAGAGCCUUGGUUUUUUG
Ans: -1.46

Q: State the recorded polymerase ribozyme fitness (log ratio) for this entry: GACCAAUCUACCCUCAGAGCUCGAGAUCAUCUUCGGAUGCAAAGGAGGCAGGCUUCGGUGGCGCGAUAGUGCCAACGUCCUCAACCUCCAAUGCAUCCAACCACAUGAUGAUGCCUGAAGAGCCUUGGUUUUUUG
Ans: -6.56
